Reported survival values are given for each entry in this list.
- Test system: DeltatarO mutant
- procedure-summary: S. aureus survival, RN4220 and DeltatarO strains – OD600, teichoic acid synthesis inhibitors, primary screen (AID 463173)
- condition-set: S. aureus RN4220 wild type/DeltatarO growth, OD600, 18 h, stronger effect = lower value, screened at 18.75 µg/mL (by protocol)
The campaign covered roughly 52,000 compounds. About 4,300 (8.3%) were called active. The sample holds actives, similar compounds and a random draw of the others, so the mix is not that of the screen.

[
  {
    "compound": "Cc1ccc(C)c2sc(N3CCN(C(=O)c4ccco4)CC3)nc12",
    "survival (%)": 134
  },
  {
    "compound": "Clc1ccc(-c2nc3ncccn3c2Nc2ccc3c(c2)OCCO3)cc1",
    "survival (%)": 89
  },
  {
    "compound": "Cc1cccc(NC(=O)C2CCCN(S(=O)(=O)c3ccc4c(c3)oc(=O)n4C)C2)c1C (stereo not given)",
    "survival (%)": 83
  },
  {
    "compound": "CCOC(=O)c1c(S(=O)(=O)N2CCCC(C(=O)Nc3cccc(C)n3)C2)c(C)n(C)c1C (stereo not given)",
    "survival (%)": 87
  },
  {
    "compound": "CCC(C)NC(=O)c1ccc2nc(Cc3ccc(OC)cc3)oc2c1 (stereo not given)",
    "survival (%)": 76
  },
  {
    "compound": "O=C(Cn1c(=O)n(-c2ccccc2)c(=O)c2ccc(C(=O)NCc3ccc4c(c3)OCO4)cc21)Nc1ccc(Br)cc1F",
    "survival (%)": 117
  },
  {
    "compound": "COc1ccc(OC)c2sc(N3CCN(C(=O)C(C)(C)C)CC3)nc12",
    "survival (%)": 89
  },
  {
    "compound": "Cc1ccc(/C=C2\\SC(=O)NC2=S)o1",
    "survival (%)": 33
  },
  {
    "compound": "COc1ccc(OC)c2sc(N3CCN(C(=O)c4ccco4)CC3)nc12",
    "survival (%)": 87
  },
  {
    "compound": "Cc1ccc(-n2c(C)cc(/C=C3\\SC(=O)NC3=O)c2C)cc1",
    "survival (%)": 95
  }
]

----------
- System: DeltatarO mutant
- procedure-summary: S. aureus survival, RN4220 and DeltatarO strains – OD600, teichoic acid synthesis inhibitors, primary screen (AID 463173)
- condition-set: S. aureus RN4220 wild type/DeltatarO growth, OD600, 18 h, stronger effect = lower value, screened at 18.75 µg/mL (by protocol)
Hit rate of the full screen: of about 52,000 compounds, about 4,300 (8.3%) were called active. For the sample, actives were picked, then their nearest neighbours and some compounds at random.
Reported survival values are given for each entry in this list.
measurement-kind: survival (%)

[
  {
    "compound": "Cc1ccc(N2CC(c3nc(-c4ccc(Cl)cc4)no3)CC2=O)cc1F (stereo unspecified)",
    "study-target": "DeltatarO mutant",
    "observed-value": 98
  },
  {
    "compound": "CCc1ccc2oc(-c3ccc(C)c(NC(=O)c4ccc(C#N)cc4F)c3)nc2c1",
    "study-target": "DeltatarO mutant",
    "observed-value": 74
  },
  {
    "compound": "CCc1ccccc1NC(=O)CSc1nnc(-c2ccc(OC)cc2)s1",
    "study-target": "DeltatarO mutant",
    "observed-value": 80
  },
  {
    "compound": "COc1ccccc1NS(=O)(=O)c1cn(C)c(C)n1",
    "study-target": "DeltatarO mutant",
    "observed-value": 37
  },
  {
    "compound": "CCC(=O)Nc1cccc(NC(=O)c2cccs2)c1",
    "study-target": "DeltatarO mutant",
    "observed-value": 72
  },
  {
    "compound": "CC(C)CC(=O)N1c2nc(C(C)C)nn2C2(CCCCC2)[C@@H]2CCCC[C@@H]21",
    "study-target": "DeltatarO mutant",
    "observed-value": 79
  },
  {
    "compound": "CC(C)(C)OC(=O)N1CCC(c2c(C(=O)NCc3cccs3)cnn2-c2cccc(F)c2)CC1",
    "study-target": "DeltatarO mutant",
    "observed-value": -5
  },
  {
    "compound": "O=C(CCSCCc1ccccn1)Nc1ccc(Cl)cc1",
    "study-target": "DeltatarO mutant",
    "observed-value": 47
  },
  {
    "compound": "CCc1ccccc1Nc1ncnc2c1nc1n2CCCC1",
    "study-target": "DeltatarO mutant",
    "observed-value": 94
  },
  {
    "compound": "COc1ccc(CNC(=O)c2cnn(-c3ccc(OC)cc3)c2C2CCN(C(=O)OC(C)(C)C)CC2)cc1",
    "study-target": "DeltatarO mutant",
    "observed-value": 74
  },
  {
    "compound": "COC(=O)c1cc(OC)c(OC)cc1NC(=O)c1ccc2c(c1)CCN2S(=O)(=O)c1ccccc1",
    "study-target": "DeltatarO mutant",
    "observed-value": 66
  }
]

----------
- Tested on: DeltatarO mutant
- procedure-summary: S. aureus survival, RN4220 and DeltatarO strains – OD600, teichoic acid synthesis inhibitors, primary screen (AID 463173)
- condition-set: S. aureus RN4220 wild type/DeltatarO growth, OD600, 18 h, stronger effect = lower value, screened at 18.75 µg/mL (by protocol)
About 4,300 (8.3%) of roughly 52,000 compounds were called active. The sample holds actives, similar compounds and a random draw of the others, so the mix is not that of the screen.
Reported survival values are given for each entry in this list.

[
  {
    "compound": "O=C(NCCc1ccncc1)Nc1c[nH]c2ccccc2c1=O",
    "study-target": "DeltatarO mutant",
    "output-unit": "%",
    "survival": 89
  },
  {
    "compound": "CCCc1cc(=O)oc2cc(C)c3c(-c4ccccc4)c(C)oc3c12",
    "study-target": "DeltatarO mutant",
    "output-unit": "%",
    "survival": -10
  },
  {
    "compound": "Cc1cc(C)cc(NC(=O)N2CCN(C(=O)c3nsc4ccccc34)CC2)c1",
    "study-target": "DeltatarO mutant",
    "output-unit": "%",
    "survival": 88
  },
  {
    "compound": "COc1cccc(C(=O)Nc2ccc(C(=O)OCc3cc(=O)n4nc(C5CC5)sc4n3)cc2)c1",
    "study-target": "DeltatarO mutant",
    "output-unit": "%",
    "survival": 79
  },
  {
    "compound": "COc1cccc(N2CCN(Cc3cc(=O)oc4cc(C)ccc34)CC2)c1",
    "study-target": "DeltatarO mutant",
    "output-unit": "%",
    "survival": 70
  },
  {
    "compound": "O=C(CSc1nc2c(c(=O)[nH]1)CCC2)Nc1ccccc1F",
    "study-target": "DeltatarO mutant",
    "output-unit": "%",
    "survival": 73
  },
  {
    "compound": "Cc1ccc2c(CN3CCN(C(=O)c4ccc(F)cc4)CC3)cc(=O)oc2c1",
    "study-target": "DeltatarO mutant",
    "output-unit": "%",
    "survival": 33
  },
  {
    "compound": "O=C(Nc1ccccc1)N1CCN(C(=O)c2nsc3ccccc23)CC1",
    "study-target": "DeltatarO mutant",
    "output-unit": "%",
    "survival": 88
  },
  {
    "compound": "Cc1cccc(NC(=O)N2CCN(C(=O)c3nsc4ccccc34)CC2)c1C",
    "study-target": "DeltatarO mutant",
    "output-unit": "%",
    "survival": 88
  },
  {
    "compound": "COc1ccc(CNC(=O)c2cnc3sc(N4CCCCCC4)nn3c2=O)cc1",
    "study-target": "DeltatarO mutant",
    "output-unit": "%",
    "survival": 101
  },
  {
    "compound": "CCCc1cc(=O)oc2cc(C)c3c(-c4cccc(OC)c4)coc3c12",
    "study-target": "DeltatarO mutant",
    "output-unit": "%",
    "survival": 67
  },
  {
    "compound": "CCCc1cc(=O)oc2cc(C)c3c(C(C)(C)C)coc3c12",
    "study-target": "DeltatarO mutant",
    "output-unit": "%",
    "survival": 88
  },
  {
    "compound": "COc1ccc(C(=O)Nc2cccc(C(=O)OCc3cc(=O)n4nc(C5CC5)sc4n3)c2)cc1",
    "study-target": "DeltatarO mutant",
    "output-unit": "%",
    "survival": 115
  },
  {
    "compound": "COc1ccc(CNC(=O)C(CCSC)NS(=O)(=O)c2ccc3c(c2)oc(=O)n3C)cc1 (stereo unspecified)",
    "study-target": "DeltatarO mutant",
    "output-unit": "%",
    "survival": 69
  },
  {
    "compound": "O=S(=O)(Nc1cccc(-c2ccc(N3CCCCCC3)nn2)c1)c1ccccc1",
    "study-target": "DeltatarO mutant",
    "output-unit": "%",
    "survival": 6
  },
  {
    "compound": "Cc1ccc(OCC(=O)Nc2ccc(C(=O)OCc3cc(=O)n4nc(C5CC5)sc4n3)cc2)cc1",
    "study-target": "DeltatarO mutant",
    "output-unit": "%",
    "survival": 72
  },
  {
    "compound": "O=C(Nc1cccc(C(=O)OCc2cc(=O)n3nc(C4CC4)sc3n2)c1)c1ccccc1",
    "study-target": "DeltatarO mutant",
    "output-unit": "%",
    "survival": 6
  },
  {
    "compound": "COc1ccc(C(=O)Nc2ccc(C(=O)OCc3cc(=O)n4nc(C5CC5)sc4n3)cc2)cc1",
    "study-target": "DeltatarO mutant",
    "output-unit": "%",
    "survival": -1
  },
  {
    "compound": "Cc1ccc(NC(=O)N2CCc3cc(S(=O)(=O)N4CCC(C)CC4)ccc32)cc1F",
    "study-target": "DeltatarO mutant",
    "output-unit": "%",
    "survival": 105
  },
  {
    "compound": "Cc1ccc(NC(=O)N2CCN(C(=O)c3nsc4ccccc34)CC2)cc1C",
    "study-target": "DeltatarO mutant",
    "output-unit": "%",
    "survival": -5
  },
  {
    "compound": "CCc1ccccc1NC(=O)N1CCN(C(=O)c2nsc3ccccc23)CC1",
    "study-target": "DeltatarO mutant",
    "output-unit": "%",
    "survival": 17
  }
]

Reference for the values: PubChem BioAssay AID463173
